Target: insect-produced ADAM17 ECD (Homo sapiens, UniProt P78536)
Sequence (P78536 215-671 limits assumed): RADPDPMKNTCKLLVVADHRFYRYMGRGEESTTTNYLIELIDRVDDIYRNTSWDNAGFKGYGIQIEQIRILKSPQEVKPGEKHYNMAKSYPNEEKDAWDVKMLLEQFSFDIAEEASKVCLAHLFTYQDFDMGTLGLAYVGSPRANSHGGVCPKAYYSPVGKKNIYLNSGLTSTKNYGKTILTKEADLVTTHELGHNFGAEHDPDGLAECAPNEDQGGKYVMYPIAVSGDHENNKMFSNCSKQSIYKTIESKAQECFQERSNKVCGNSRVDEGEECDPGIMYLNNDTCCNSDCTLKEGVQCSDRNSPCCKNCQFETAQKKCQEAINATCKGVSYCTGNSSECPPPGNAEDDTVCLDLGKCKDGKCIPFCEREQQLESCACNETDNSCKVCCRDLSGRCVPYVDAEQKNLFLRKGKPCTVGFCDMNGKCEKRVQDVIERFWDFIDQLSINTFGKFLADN
Assay: Inhibition kinetics
Assay type: biochemical
Observed Property: pKi
# reply with the number alone; pKi is -log10 of concentration in mol/L

Prompt line: Please state recorded pKi (tested on insect-produced ADAM17 ECD (Homo sapiens, UniProt P78536)) of COc1ccc(S(=O)(=O)N2CCN(C(=O)c3ccc(-c4ccccc4)cc3)CC2C(=O)NO)cc1 (stereo not shown)
Response line: 8.51

---

Biological target: mammalian-produced ADAM17 ECD (Homo sapiens, UniProt P78536)
Sequence (P78536 215-651 limits assumed): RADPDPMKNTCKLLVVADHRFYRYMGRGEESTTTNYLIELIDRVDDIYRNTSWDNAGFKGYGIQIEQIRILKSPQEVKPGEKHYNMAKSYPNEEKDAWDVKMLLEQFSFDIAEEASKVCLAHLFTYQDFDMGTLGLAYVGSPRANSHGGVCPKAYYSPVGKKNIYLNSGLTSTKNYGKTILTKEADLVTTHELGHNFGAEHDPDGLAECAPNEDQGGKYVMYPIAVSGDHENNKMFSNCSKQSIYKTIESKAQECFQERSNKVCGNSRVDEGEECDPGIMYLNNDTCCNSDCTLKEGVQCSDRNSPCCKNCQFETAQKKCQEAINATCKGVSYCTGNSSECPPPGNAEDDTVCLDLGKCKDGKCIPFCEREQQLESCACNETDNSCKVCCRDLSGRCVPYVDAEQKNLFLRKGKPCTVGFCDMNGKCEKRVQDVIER
Test: Inhibition kinetics
Assay type: biochemical
Conditions: mammalian-produced ADAM17; mixed inhibition model, non-linear regression
Observed Property: Ki (nM)
Give a bare numeral; the unit nM is implied.

Prompt line: So what does the record say about Ki for `CC(C)C[C@H](CC(=O)NO)C(=O)N[C@H](C(=O)N[C@@H](C)C(=O)NCCN)C(C)(C)C` ?
Response line: 32
